Origin of measurements: ChEMBL document CHEMBL1150404

Give pKi for every item shown.
assay_text: Displacement of [3H]clonidine from alpha-2-adrenoceptor in Wistar rat cerebral cortex membrane
Assay type: tissue-based
The read-out pKi is expressed as -log10 of concentration in moles per litre.

Ask: Requested read-out: pKi. Entry: COC(=O)C(C)N1C(=O)N(CC(O)CN2CCN(c3ccccc3OC)CC2)C(c2ccccc2)(c2ccccc2)C1=O (stereo not drawn)
Reply: 6.35

Ask: Which pKi is listed for COC(=O)CN1C(=O)N(CC(O)CN2CCN(c3ccccc3OC)CC2)C(c2ccccc2)(c2ccccc2)C1=O (stereo not drawn) ?
Reply: 6.10

Ask: # lookup: pKi of CCOc1ccccc1N1CCN(CC(O)CN2C(=O)N(C)C(=O)C2(c2ccccc2)c2ccccc2)CC1 (stereo not drawn)
Reply: 6.27
